target: DYRK1 (Homo sapiens (Human), UniProt Q13627); experiment: ADP-Glo Kinase Assay, DYRK1; type: biochemical; details: 1 μM compound; read-out: DYRK1A % INH (1 μM)
Entries and their inhibition at 1 µM values follow.
Record the value in %, omitting the unit from your answer.

Examples from the recorded data:
CCn1c(Nc2ccccc2N)nc2c([N+](=O)[O-])c(Br)c(Br)cc21 [Example 22N]; 21
COC(CN)CNc1nc2c([N+](=O)[O-])c(Br)c(Br)cc2n1C(C)C (centres unmarked) [Example 22AB]; 17
CC(C)n1c(NCCOCCN)nc2c([N+](=O)[O-])c(Br)c(Br)cc21 [Example 22J]; 16

[Q] Which measured inhibition at 1 µM belongs to CC(C)n1c(NC2CCNC2)nc2c([N+](=O)[O-])c(Br)c(Br)cc21 (centres unmarked) [Example 1BA] , tested on DYRK1 (Homo sapiens (Human), UniProt Q13627)?
[A] 52

[Q] inhibition at 1 µM of CCn1c(N2CCNCC2C)nc2c([N+](=O)[O-])c(Br)c(Br)cc21 (centres unmarked) [Example 1AD] on DYRK1 (Homo sapiens (Human), UniProt Q13627)?
[A] 72

[Q] Hi! What's the reported inhibition at 1 µM for CC(C)n1c(N2CCN[C@@H](C)C2)nc2c([N+](=O)[O-])c(Br)c(Br)cc21 [Example 22Z] on DYRK1 (Homo sapiens (Human), UniProt Q13627)?
[A] 63

[Q] What measured inhibition at 1 µM is associated with CCn1c(N2CCNCC2)nc2c(C(F)(F)F)c(Br)c(Br)cc21 [Example 9A] on DYRK1 (Homo sapiens (Human), UniProt Q13627)?
[A] 77
